Hey, just so you know, these numbers are from PubChem BioAssay (EPA / NIEHS).

- Read-out: Protein phosphatase 2A (PPP2R4), PTPA (gene 5524)
- method.notes: LTEA_HepaRG_PPP2R4: Life Technologies and Expression Analysis (LTEA) Assay for Protein phosphatase 2A (PPP2R4) using HepaRG (AID 2283522)
- reported.conditions: mRNA level, 48 h; actives raise or lower the signal
- Experimental: LTEA_HepaRG is a cell based, multiplexed-readout assay that uses HepaRG, a human liver cell line, with measurements taken at 48 hours after chemical dosing on a 96-well plate.LTEA_HepaRG_PPP2R4 is one of 102 assay component(s) measured in the LTEA HepaRG cell culture assay. It is a marker of Cell proliferation, survival, death.Data from the assay component LTEA_HepaRG_PPP2R4 was analyzed into 1 endpoint. […]
Active and inactive are the calls of the source. Rule for the calls: active = hit-call score of the fitted dose curve at least 0.9, where 1 is the maximum; inactive = score below 0.9.
Outcome codes: 1 = active, -1 = inactive

1. CCOC(=O)c1ccc(C2CCC(NC[C@H](O)COc3ccc(O)c(NS(C)(=O)=O)c3)CC2)cc1 (stereo not given in full) ... -1
2. O=P(OC(CCl)CCl)(OC(CCl)CCl)OC(CCl)CCl ... 1
3. CC(=O)OC[C@H]1O[C@@](COC(C)=O)(O[C@H]2O[C@H](COC(C)=O)[C@@H](OC(C)=O)[C@H](OC(C)=O)[C@H]2OC(C)=O)[C@@H](OC(C)=O)[C@@H]1OC(C)=O ... -1
4. C=CC(=C)CCC=C(C)C ... -1
5. CC(O)CN(CCN(CC(C)O)CC(C)O)CC(C)O (stereo not given) ... 1
6. CCCC(=O)OCC ... -1
7. CCn1nc(Cc2ccccc2)cc1C1CCN(C[C@H]2C[C@H](N(C)[C@@H](C(=O)O)C(C)C)C[C@@H]2c2cccc(F)c2)CC1 ... -1
8. Nc1cccc(N)c1 ... -1
9. CCCCCCc1ccc(O)cc1O ... -1
10. O=C(O)CCN(C1(C(=O)NO)CCCC1)S(=O)(=O)c1ccc(Oc2ccc(F)cc2)cc1 ... -1
